B1: TPR t1 (parent)
chain: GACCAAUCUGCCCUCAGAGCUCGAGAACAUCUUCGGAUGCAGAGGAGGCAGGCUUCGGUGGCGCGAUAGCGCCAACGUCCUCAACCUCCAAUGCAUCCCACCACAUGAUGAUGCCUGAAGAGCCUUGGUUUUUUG

- Variants of: B1
- TEST SUMMARY: polymerase ribozyme fitness, log enrichment relative to wild type (log ratio); higher = more active; in vitro selection for triplet polymerase activity
The variants listed here are annotated with their polymerase ribozyme fitness (log ratio).
Reply with just the number.

U21C C22U C53G G57U G60A = -5.06

Query: polymerase ribozyme fitness (log ratio); subject: A105C G113U
Result: -4.85

Query: polymerase ribozyme fitness (log ratio); subject: G47U G110U
Result: -3.1

Query: polymerase ribozyme fitness (log ratio); subject: C3U C13U
Result: -0.225

Query: polymerase ribozyme fitness (log ratio); subject: U59A C124A
Result: 1.62

Query: polymerase ribozyme fitness (log ratio); subject: A5C U78C C101U
Result: -1.23

Query: polymerase ribozyme fitness (log ratio); subject: C15A A18U C22G U92G
Result: -6.59

Query: polymerase ribozyme fitness (log ratio); subject: G36A G61A A103C A118U
Result: -5.74

Query: polymerase ribozyme fitness (log ratio); subject: G17A U55A G63U A84G
Result: -7.59

Query: polymerase ribozyme fitness (log ratio); subject: G69A G135A
Result: -3.3

Query: polymerase ribozyme fitness (log ratio); subject: C49A A103C
Result: -5.44

Query: polymerase ribozyme fitness (log ratio); subject: C49G A83U
Result: -0.66
